Assay: Deoxyribose degradation as a measure of hydroxy radical formation.
Assay type: functional
readout_type: DD (uM of MDA mM-1)

Consider the worked cases shown below.
O=C1c2c(O)cccc2Cc2ccc(Cc3ccccc3)c(O)c21 :: < 0.25
COc1ccc(Cc2ccc3c(c2O)C(=O)c2c(O)cccc2C3)cc1OC :: < 0.15
COc1ccccc1Cc1ccc2c(c1O)C(=O)c1c(O)cccc1C2 :: < 0.25

I'd like to know its DD (uM of MDA mM-1). The compound in question is O=C1c2c(O)cccc2Cc2ccc(Cc3ccc(O)c(O)c3)c(O)c21
1.82

I'd like to know its DD (uM of MDA mM-1). The compound in question is O=C1c2c(O)cccc2Cc2ccc(CCc3ccccc3)c(O)c21
< 0.15

I'd like to know its DD (uM of MDA mM-1). The compound in question is COc1ccc(Cc2ccc3c(c2O)C(=O)c2c(O)cccc2C3)c(OC)c1
< 0.15

I'd like to know its DD (uM of MDA mM-1). The compound in question is O=C1c2c(O)cccc2Cc2ccc(CCCc3cc(O)c(O)c(O)c3)c(O)c21
2.97

I'd like to know its DD (uM of MDA mM-1). The compound in question is O=C1c2c(O)cccc2Cc2ccc(Cc3ccc(C(F)(F)F)cc3)c(O)c21
< 0.15

I'd like to know its DD (uM of MDA mM-1). The compound in question is O=C1c2c(O)cccc2Cc2cc(Cc3ccccc3)cc(O)c21
< 0.25

I'd like to know its DD (uM of MDA mM-1). The compound in question is COc1ccc(CCCc2ccc3c(c2O)C(=O)c2c(O)cccc2C3)cc1
< 0.15

I'd like to know its DD (uM of MDA mM-1). The compound in question is COc1ccc(Cc2cc(O)c3c(c2)Cc2cccc(O)c2C3=O)c(OC)c1
0.32

I'd like to know its DD (uM of MDA mM-1). The compound in question is O=C(c1ccccc1)c1ccc2c(c1O)C(=O)c1c(O)cccc1C2
2.68

I'd like to know its DD (uM of MDA mM-1). The compound in question is COc1ccc(OC)c(Cc2cc(O)c3c(c2)Cc2cccc(O)c2C3=O)c1
0.51
